TARGET: β 5i (chymotrypsin-like activity) (Homo sapiens, UniProt P20618+P28062)
Construct: protease activity associated with the proteasome complex in cultured cells; endogenous in cells
EXPERIMENT NOTES: Cell-Based Proteasome subunit activity/selectivity assay, β5i, substrate (ANW)2Rh110
MEASUREMENT CONDITIONS: Ramos cells; substrate (ANW)2Rh110 (β5i); highest concentration tested 20 μM; read-out: Ic50:ramos:ac-(anw)2-r110
READOUT KIND: IC50 (nM)

compound="COc1cc(OC(F)(F)F)ccc1C(=O)NCCn1cc(C(=O)NC(C#N)c2ccc(C(F)(F)F)cc2)nn1 (centres unmarked) [Example 71]" target="β 5i (chymotrypsin-like activity) (Homo sapiens, UniProt P20618+P28062)" readout_value=5590
compound="CCc1ccc(C(C#N)NC(=O)c2cn(CCNC(=O)c3ccc(OC)c(OC)c3OC)nn2)cc1 (single isomer, unassigned) [Example 50]" target="β 5i (chymotrypsin-like activity) (Homo sapiens, UniProt P20618+P28062)" readout_value=58
compound="COc1ccc(C(=O)NCCn2cc(C(=O)NC(C#N)c3ccc(Cl)cc3)nn2)c(OC)c1OC (centres unmarked) [Example 68]" target="β 5i (chymotrypsin-like activity) (Homo sapiens, UniProt P20618+P28062)" readout_value=327
compound="CCc1ccc(C(C#N)NC(=O)c2cn(CCNC(=O)c3cc(Cl)ccn3)nn2)cc1 (centres unmarked) [Example 27]" target="β 5i (chymotrypsin-like activity) (Homo sapiens, UniProt P20618+P28062)" readout_value=4520
compound="CCc1ccc(C(C#N)NC(=O)c2cn(CCNC(=O)c3cccc4c3OCC4)nn2)cc1 (centres unmarked) [Example 13]" target="β 5i (chymotrypsin-like activity) (Homo sapiens, UniProt P20618+P28062)" readout_value=1890

* * *

TARGET: β5c (chymotrypsin-like activity) (Homo sapiens, UniProt P20618+P28074)
Construct: protease activity associated with the proteasome complex in cultured cells; endogenous in cells; host or cells: Ramos cells
EXPERIMENT NOTES: Cell-Based Proteasome subunit activity/selectivity assay, β5c, substrate (WLA)2Rh110
MEASUREMENT CONDITIONS: Ramos cells; substrate (WLA)2Rh110 (β5c); highest concentration tested 20 μM; read-out: Ic50:ramos:rh110-(wla)2
pIC50: −log10 of the molar value.
Listing of recorded pIC50 by entry.
READOUT KIND: pIC50

compound="CCc1ccc(C(C#N)NC(=O)c2cn(CCNC(=O)c3ccc(OC)c(OC)c3OC)nn2)cc1 (stereo not drawn) [Example 1]" readout_value="≤ 4.70"
compound="COc1ccc(C(=O)NCCn2cc(C(=O)NC(C#N)c3ccc(C4CC4)cc3)nn2)c(OC)c1OC (stereo not drawn)" readout_value="≤ 4.70"
compound=O=C(N[C@@H](CCc1ccccc1)C(=O)O)c1cn(CCNC(=O)c2ccc(C(F)(F)F)cc2F)nn1 readout_value="≤ 4.70"
compound="CCc1ccc(C(C#N)NC(=O)c2cn(CCNC(=O)c3ccc(C(F)(F)F)cn3)nn2)cc1 (stereo not drawn)" readout_value="≤ 4.70"
compound="COc1ccc(C(C#N)NC(=O)c2cn(CCNC(=O)c3ccc(OC)c(OC)c3OC)nn2)cn1 (stereo not drawn)" readout_value="≤ 4.70"
compound="COc1cc(OC(F)(F)F)ccc1C(=O)NCCn1cc(C(=O)NC(C#N)c2ccc(C(F)(F)F)cc2)nn1 (stereo not drawn)" readout_value="≤ 4.70"
compound="COc1ccc(C(=O)NCCn2cc(C(=O)NC(C#N)c3ccc(Cl)cc3)nn2)c(OC)c1OC (stereo not drawn)" readout_value=4.77
compound="CCc1ccc(C(C#N)NC(=O)c2cn(CCNC(=O)c3ccccc3COC)nn2)cc1 (stereo not drawn)" readout_value="≤ 4.70"
compound="CCc1ccc(C(C#N)NC(=O)c2cn(CCNC(=O)c3cc(C(F)(F)F)ccc3OC)nn2)cc1 (stereo not drawn)" readout_value="≤ 4.70"
compound=O=C(CCNC(=O)c1cn(CCNC(=O)c2ccc(C(F)(F)F)cc2F)nn1)c1ccccc1 readout_value=4.85
compound="CCc1ccc(C(C#N)NC(=O)c2cn(CCNC(=S)c3ccc(OC)c(OC)c3OC)nn2)cc1 (stereo not drawn)" readout_value=4.79
compound="CCOc1ccc(C(=O)NCCn2cc(C(=O)NC(C#N)c3ccc(CC)cc3)nn2)nc1 (stereo not drawn)" readout_value=4.88
compound="CCc1ccc(C(C#N)NC(=O)c2cn(CCNC(=O)c3ccc(C(F)(F)F)cc3F)nn2)cc1 (stereo not drawn)" readout_value="≤ 4.70"
compound="CC1=C(C(=O)NCCn2cc(C(=O)NC(C#N)c3ccc(C(F)(F)F)cc3)nn2)Cc2ccccc21 (stereo not drawn)" readout_value=4.97
compound="COc1ccc(C(=O)NCCn2cc(C(=O)NC(C#N)c3ccc(C(F)(F)F)cc3)nn2)c(F)c1 (stereo not drawn)" readout_value="≤ 4.70"
compound="CCc1ccc(C(C#N)NC(=O)c2cn(CCCNC(=O)c3ccc(C(F)(F)F)cc3OC)nn2)cc1 (stereo not drawn)" readout_value="≤ 4.70"
compound="COc1ccc(C(=O)NCCn2cc(C(=O)NC(C#N)c3ccccc3Br)nn2)c(OC)c1OC (stereo not drawn)" readout_value="≤ 4.70"
compound=COC(=O)[C@H](Cc1cc2ccccc2[nH]1)NC(=O)c1cn(CCNC(=O)c2ccc(C(F)(F)F)cc2F)nn1 readout_value="≤ 4.70"
